Data provenance: PubChem BioAssay (NCI)

Tested on: ACHN renal
Experiment: NCI-60 one-dose screen, 48 h (100 = growth as untreated, 0 = no growth, -100 = all killed)
Details: 10 µM unless noted
This is part of a sample that, as a whole, favours compounds with a hit. Of some 83,000 tested, about 20% had one in any assay.
MEASURED_METRIC: growth (%)
Write the number in % without appending the unit.

>>> recorded_number("NC(=O)c1ccccc1NC(=O)c1ccccc1Cl")
104
>>> recorded_number("O=C1CN(CO)C(=O)CN1CO")
97.6

Now consider a different compound.
Data request: Record lookup: for ACHN renal, what growth belongs to COc1ccc(Cn2c(NCCCN(C)C)nc(=O)n(Cc3ccc(F)cc3)c2=O)cc1 ?
Data returned: 105

###

Tested on: M14 melanoma
Assay: NCI-60 one-dose screen, 48 h (100 = growth as untreated, 0 = no growth, -100 = all killed)
Conditions: 10 µM unless noted
About 83,000 compounds went through this panel and 20% of them were active in at least one assay; those are over-represented in the sample as a whole. Calls of active or inactive are those of the source. How the source made its calls: active means growth percent below 10; inactive means the rest.
MEASURED_METRIC: growth

Data request: Item CCCn1cnc2c1c(=O)n(CCCCC(C)=O)c(=O)n2C has what recorded growth?
Data returned: 104% (inactive)

Data request: Item Cc1ccc(NC(=O)CSc2nnc3n(Cc4ccccc4)c(=O)c4c(C)c(C(N)=O)sc4n23)cc1 has what recorded growth?
Data returned: 60.5% (inactive)

Data request: Item CC(c1cc(Cl)ccc1O)c1cc(Cl)ccc1O has what recorded growth?
Data returned: 22.7% (inactive)

Data request: Item COc1ccc(C2CC(c3cccc(Nc4ccnc5cc(Cl)ccc45)c3)=NN2C=O)cc1 (stereo not given) has what recorded growth?
Data returned: 25.2% (inactive)

Data request: Item O=C1/C(=C/c2ccc([N+](=O)[O-])o2)Oc2ccc(Cl)cc21 has what recorded growth?
Data returned: -18.8% (active)

###

Test system: SNB-19 CNS
Assay: NCI-60 one-dose screen, 48 h (100 = growth as untreated, 0 = no growth, -100 = all killed)
Details: 10 µM unless noted
The panel holds about 83,000 compounds, 20% with a hit somewhere; the sample as a whole holds those more often.
Assign satisfied whenever growth does not fall below 90%; assign not satisfied whenever it does.

>>> class_assignment("CN(C(=O)c1ccccc1)N(C)C(=O)c1ccccc1")
"satisfied"
>>> class_assignment("CC(C)[C@H]1CC[C@H]2[C@@H](CC[C@H]3[C@](C)(CN)CCC[C@]23C)C1")
"satisfied"
>>> class_assignment("Oc1ccc(Cc2ccc(O)c(C3CC(c4ccc(Cl)cc4)=NN3)c2)cc1C1CC(c2ccc(Cl)cc2)=NN1 (stereo unspecified)")
"not satisfied"

Data request: Answer whether growth of O=C(Nc1cccc2ccccc12)c1cc2c(cc1Br)OCO2 is greater than or equal to 90%.
Data returned: not satisfied

Data request: Answer whether growth of C[n+]1ccc(C#N)c2ccccc21 is greater than or equal to 90%.
Data returned: satisfied

Data request: Answer whether growth of COc1ccc(/C=C2\COc3ccc(O)c(O)c3C2=O)cc1OC is greater than or equal to 90%.
Data returned: not satisfied

###

System: SK-MEL-2 melanoma
Assay: NCI-60 one-dose screen, 48 h
Settings: 10 µM unless noted
This is part of a sample that, as a whole, favours compounds with a hit. Of some 83,000 tested, about 20% had one in any assay. Calls of active or inactive are those of the source. Rule for the calls: active = growth percent below 10; inactive = the rest.
Field 'call' accepts yes (active), no (inactive)

>>> class_assignment("CCOC(=O)c1ccccc1OC(=O)NNc1ccccc1")
"no"
>>> class_assignment("Cc1nn(-c2ccccc2)c(Cl)c1C(CC(=O)c1ccc(Cl)cc1)CC(=O)c1ccc(Cl)cc1")
"no"
>>> class_assignment("CCCc1cccc(CCC)c1O")
"no"
>>> class_assignment("O=Cc1c[nH]c2ccc(NC(=O)OCc3ccccc3)cc12")
"yes"
>>> class_assignment("Clc1ccc(CCC(Cn2ccnc2)Sc2c(Cl)cccc2Cl)cc1 (stereo unspecified)")
"no"

From here, focus on the item given below.
Data request: Which result was noted for this compound in the test: CCc1[nH]nc(-c2ccc(OC)cc2)c1-c1ccccc1OCCN(CC)CC
Data returned: no
